Each entry below carries its measured Ki, system: Carbonic anhydrase 2 (Homo sapiens, UniProt P00918).
parameter: Ki (nM)

Here are 2 molecules together with their reported answers.
NS(=O)(=O)c1ccc(-n2nc(-c3ccncc3)ccc2=O)cc1    4.8
NS(=O)(=O)c1ccc(-n2ncc(N3CCCCCC3)c(Cl)c2=O)cc1    0.06

(I) NS(=O)(=O)c1ccc(-n2ncc(N3CCN(c4ccccn4)CC3)c(Cl)c2=O)cc1
(II) COc1ccc2cnn(-c3ccc(S(N)(=O)=O)cc3)c(=O)c2c1OC
Hey, which is lower on measured Ki, I or II ? Indicate which entry you chose by stating its label.
II
